B1: KRT34 (parent)
chain: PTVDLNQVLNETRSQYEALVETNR

Variants of: B1
Test: protein stability index of a GFP-peptide fusion (GPS, HEK-293T) (PSI 1-6); higher = more stable;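 note: lentivirally expressed fusions sorted by FACS into six bins by GFP to DsRed ratio, PSI derived from sequencing read proportions per bin multiplied by bin number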
Settings: c terminus: a fixed tail appended
Known protein stability index of a selection of variants
The response must contain the number and no unit.

Look over these answered cases.
Reported protein stability index for S14D was 2.87

Reported protein stability index for N6C was 2.51

Reported protein stability index for L5N was 4.57

Next:
Reported protein stability index for L19Q was 4.63

Reported protein stability index for N10E was 2.41

Reported protein stability index for R13Q was 3.97

Reported protein stability index for V8L was 1.43

Reported protein stability index for L9V was 4.28
